System: UACC-62 melanoma
Test method notes: NCI tumour cell line growth inhibition, 48 h
Measurement type: TGI

Take a look at these entries with their results.
>  <Compound>
CC(=O)OCC(OC(C)=O)C(OC(C)=O)C(/C=N\Nc1nc2ccccc2c(=O)[nH]1)OC(C)=O (stereo unspecified)

>  <Result value>
> 100 µM

$$$$
>  <Compound>
Cn1cnc([N+](=O)[O-])c1Sc1nccn1-c1ccccc1

>  <Result value>
> 100 µM

$$$$
>  <Compound>
CCOC(=O)c1sc2c(c1OC(=O)c1ccc(Cl)cc1Cl)c(=O)n(-c1ccccc1)c(=S)n2-c1ccccc1

>  <Result value>
> 80.2 µM

$$$$

Task item: Recorded TGI for Oc1c(Nc2ccccc2)cc2c3c1N=NC=3CCN=2 , please?
Reply: 49.2 µM

Task item: Check Nc1nc(N)c2cc(Sc3ccc(Cl)cc3)ccc2n1 too.
Reply: 14.5 µM

Task item: Could you do the same for O=C(OC1C#CCSCC#C/C=C\1)c1cnc2ccccc2n1 (stereo unspecified) , please?
Reply: > 100 µM

Task item: Now try Cc1cc(C)c2c(=O)cc(-c3ccccc3)[nH]c2c1 .
Reply: 28.7 µM

Task item: Repeat with COc1ccc(-c2cc(=O)c3cc4c(cc3[nH]2)OCO4)c(OC)c1
Reply: > 100 µM

Task item: Item: CCc1nc2c(n1CC)C(=O)c1ccccc1C2=O
Reply: > 100 µM

Task item: Same question, Cc1cnc2cc(Cl)ccc2c1NCCN(CC(C)C)CC(C)C this time
Reply: > 100 µM

====

Each item that follows carries a reported TGI.
System: HOP-62 NSCLC
Test method notes: NCI tumour cell line growth inhibition, 48 h

Consider the worked cases shown below.
>  <Compound>
CC1(C)CCCCC1/C=C/C(CC(O)(C(F)(F)F)C(F)(F)F)=N\Nc1ccc([N+](=O)[O-])cc1[N+](=O)[O-] (centres undefined)

>  <TGI>
10.7 µM

$$$$
>  <Compound>
Cc1c(/C=N/NC(=S)Nc2ccc([N+](=O)[O-])cc2)c(=O)n(-c2ccccc2)n1C

>  <TGI>
23.8 µM

$$$$
>  <Compound>
COc1ccc2c(c1)OC(N)=C(C#N)C2c1ccc(F)c(F)c1 (centres undefined)

>  <TGI>
> 92.2 µM

$$$$

Task item: Quick check: TGI of N#C/C(=C\c1ccc([N+](=O)[O-])cc1)n1nnc2cc(F)c(F)cc21 ?
Reply: 4.11 µM

Task item: Again, but for O=C(O)CSc1nc2ccccc2[nH]1
Reply: > 100 µM

Task item: Cool, now CCC(CO)COC(=O)/C=C/C(=O)OCC(CC)CO (centres undefined)
Reply: > 100 µM

Task item: Request: Cc1ccc(NC(=O)C23CC4CC(CC(C4)C2)C3)c(C(=O)NNC(=O)c2ccc(Cl)cc2)c1
Reply: 49.6 µM

Task item: Queued: CCN1C2=C(SC(=S)C1=C1SC(C(=O)c3ccccc3)=C(C(=O)c3ccccc3)S1)SC(=Nc1ccccc1)C2=O
Reply: 76.2 µM

====

Test system: DU-145 prostate
Test method notes: NCI tumour cell line growth inhibition, 48 h
// values below are reported TGI

>  <Compound>
C/C(CC(O)(C(F)(F)Cl)C(F)(F)Cl)=N\Nc1ccccc1

>  <Assay system>
DU-145 prostate

>  <TGI>
> 100 µM

$$$$
>  <Compound>
Clc1ccc(Nc2ncnc3ccccc23)cc1

>  <Assay system>
DU-145 prostate

>  <TGI>
> 100 µM

$$$$
>  <Compound>
COc1ccc(-c2c(C(C)=O)c(C)n(C3OC(COC(C)=O)C(OC(C)=O)C(OC(C)=O)C3OC(C)=O)c(=S)c2C#N)cc1 (stereo unspecified)

>  <Assay system>
DU-145 prostate

>  <TGI>
> 100 µM

$$$$

Task item: GET /values?readout=TGI&item= CNc1cccc(-c2cc(=O)c3cc4c(cc3[nH]2)OCO4)c1
Reply: 8.87 µM

Task item: Similarly, O=C(OC1C#CCSCC#C/C=C\1)c1cnc2ccccc2n1 (stereo unspecified) ?
Reply: > 100 µM

Task item: Same lookup for ClCCN(CCCl)c1ccc(OCc2ccccc2)cc1 , please.
Reply: 27.6 µM
